A collection of sequences and their measured binding signal
Target: OsSMF1 (Oryza sativa, UniProt Q6ZLB0 1-436)
Sequence: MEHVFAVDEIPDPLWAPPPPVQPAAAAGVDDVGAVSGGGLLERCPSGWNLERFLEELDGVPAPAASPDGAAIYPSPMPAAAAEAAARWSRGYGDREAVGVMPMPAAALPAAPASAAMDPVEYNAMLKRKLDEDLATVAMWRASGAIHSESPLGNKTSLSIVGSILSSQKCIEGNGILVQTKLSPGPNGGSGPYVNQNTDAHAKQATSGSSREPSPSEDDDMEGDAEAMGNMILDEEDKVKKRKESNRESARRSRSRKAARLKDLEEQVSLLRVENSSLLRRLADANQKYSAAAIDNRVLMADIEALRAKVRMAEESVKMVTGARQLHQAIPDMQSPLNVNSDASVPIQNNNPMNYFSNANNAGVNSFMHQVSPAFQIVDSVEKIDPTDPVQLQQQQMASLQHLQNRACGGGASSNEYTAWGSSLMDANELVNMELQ
Experiment: protein-binding microarray (RPBM); PBS, 2% BSA, 51.3 ng/ul salmon testes DNA, 50 uM zinc acetate, 200 nM TF, 25 C, 1 h; high values mean tight binding
Settings: protein: recombinant; tags: N-terminal polyhistidine and DsRed monomer fusion (pET32a); chain copies: 2; label: CyDye5-dUTP incorporated in the synthesized complementary strand; 3' TTTTT single-stranded linker to array surface; dsDNA, one strand shown
The full ranking holds about 39,000 sequences; the median of “fluorescence intensity (a.u.)” is about 4,300, and the highest 2% start at about 39,000. The full list was thinned out, with the highest values kept by preference.

Answered cases to consult:
residues=CTTCACTAAGGTCATCGTCGTGCCTTCCTCGTCCTCCTCCCGGAGTCACCTAGTGCAG recorded_metric="binding signal" value="43800 fluorescence intensity (a.u.)"
residues=TTCCTGACTTCCTCCTCCCTTTCTTCTCTCGCCGCCGAGACGGAGTCACCTAGTGCAG recorded_metric="binding signal" value="41400 fluorescence intensity (a.u.)"
residues=CTCCTCTTCCCTTCCCTTCTCTCTTTTCTTTTCTCTCACACGGAGTCACCTAGTGCAG recorded_metric="binding signal" value="28600 fluorescence intensity (a.u.)"

In the following, a different sequence is considered.
Which measured binding signal value corresponds to CTCCTCTCCTCCCTCCTCGACTTCTCCGCTTTCTCCGCCTCGGAGTCACCTAGTGCAG ? 3230 fluorescence intensity (a.u.)

* * *

Below, each entry is listed with its recorded binding signal.
Target: OsSMF1 (Oryza sativa, UniProt Q6ZLB0 1-436)
Sequence: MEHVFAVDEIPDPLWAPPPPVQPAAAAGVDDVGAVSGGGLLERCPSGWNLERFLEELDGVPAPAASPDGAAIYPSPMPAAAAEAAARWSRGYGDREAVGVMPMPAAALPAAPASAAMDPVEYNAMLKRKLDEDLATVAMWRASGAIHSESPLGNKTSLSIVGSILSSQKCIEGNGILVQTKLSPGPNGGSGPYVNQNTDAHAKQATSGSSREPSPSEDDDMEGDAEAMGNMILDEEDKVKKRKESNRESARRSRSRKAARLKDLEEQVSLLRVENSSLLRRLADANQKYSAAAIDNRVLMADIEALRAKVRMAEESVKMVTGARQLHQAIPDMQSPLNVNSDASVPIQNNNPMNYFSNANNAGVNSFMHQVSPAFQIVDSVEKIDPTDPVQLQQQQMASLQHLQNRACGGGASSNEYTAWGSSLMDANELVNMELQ
Test: protein-binding microarray (RPBM); PBS, 2% BSA, 51.3 ng/ul salmon testes DNA, 50 uM zinc acetate, 200 nM TF, 25 C, 1 h; high values mean tight binding
Conditions: protein: recombinant; tags: N-terminal polyhistidine and DsRed monomer fusion (pET32a); chain copies: 2; label: CyDye5-dUTP incorporated in the synthesized complementary strand; 3' TTTTT single-stranded linker to array surface; dsDNA, one strand shown
In all, about 39,000 sequences were measured (“fluorescence intensity (a.u.)”: median about 4,300, highest 2% from about 39,000 on). The entries come from a sample that favours the highest values as a whole.

residues=GGAGCGCGGACTCGCCGGCCAGCCGCGTCACGCGCTGGCGCGGAGTCACCTAGTGCAG value="6650 fluorescence intensity (a.u.)"
residues=CCCATTGCTGTCTCTACCATGTGTCATCTTCCAATAAGCACGGAGTCACCTAGTGCAG value="4950 fluorescence intensity (a.u.)"

Please look at the following sequence next.
# input sequence: TCAATCTGGCGGGGTTTATTTGTGACCCTCGATCGGTCAACGGAGTCACCTAGTGCAG ; wanted: its binding signal 4060 fluorescence intensity (a.u.)
